Target: Voltage-gated inwardly rectifying potassium channel KCNH2 (Homo sapiens)
Test: KCNH2 potassium channel function modulators, cell-based (AID 376);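 also: 0% = buffer alone and 100% = reference blocker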
Settings: hERG-expressing cells, channel activity single-concentration screen; concentration not given here
Hit rate of the full screen: of about 2,000 compounds, about 250 (12%) were called active. Rule as the data show it: active = hERG blockade below about -20% or above about 20%; inactive = in between. Many of the other results were omitted from the sample, so actives are more common in it than they were.
Please answer using one outcome listed in class 1 for active, class 0 for inactive

NS(=O)(=O)c1ccc(N=C2C(=O)Nc3ccccc32)cc1
class 1
c1ccc([P+](CC[P+](c2ccccc2)(c2ccccc2)c2ccccc2)(c2ccccc2)c2ccccc2)cc1
class 0

QUERY: What did this assay record as the result for COc1cccc2c1C(CO)N1C(C#N)C3CC(C(=O)O)C(C1C2)N3C (configuration not stated) ?
RESULT: class 1

QUERY: Called result for Cc1cc2ccc(OC(=O)c3ccc(N=C(N)N)cc3)cc2oc1=O
RESULT: class 0

QUERY: Dear all, I need the recorded test outcome for O=C1Nc2ccccc2C1=Nc1cccc2ncccc12 , thank you.
RESULT: class 0

QUERY: Please indicate how the test categorized O=C(O)C1CC2(C1)CC(C(=O)O)C2 (configuration not stated) .
RESULT: class 0

QUERY: Record lookup: outcome of this test for O=C(O)Cc1[nH]cnc1C(=O)O ?
RESULT: class 0

* * *

Molecular target: Voltage-gated inwardly rectifying potassium channel KCNH2 (Homo sapiens) (UniProt Q12809)
Sequence (Q12809 whole entry, looked up): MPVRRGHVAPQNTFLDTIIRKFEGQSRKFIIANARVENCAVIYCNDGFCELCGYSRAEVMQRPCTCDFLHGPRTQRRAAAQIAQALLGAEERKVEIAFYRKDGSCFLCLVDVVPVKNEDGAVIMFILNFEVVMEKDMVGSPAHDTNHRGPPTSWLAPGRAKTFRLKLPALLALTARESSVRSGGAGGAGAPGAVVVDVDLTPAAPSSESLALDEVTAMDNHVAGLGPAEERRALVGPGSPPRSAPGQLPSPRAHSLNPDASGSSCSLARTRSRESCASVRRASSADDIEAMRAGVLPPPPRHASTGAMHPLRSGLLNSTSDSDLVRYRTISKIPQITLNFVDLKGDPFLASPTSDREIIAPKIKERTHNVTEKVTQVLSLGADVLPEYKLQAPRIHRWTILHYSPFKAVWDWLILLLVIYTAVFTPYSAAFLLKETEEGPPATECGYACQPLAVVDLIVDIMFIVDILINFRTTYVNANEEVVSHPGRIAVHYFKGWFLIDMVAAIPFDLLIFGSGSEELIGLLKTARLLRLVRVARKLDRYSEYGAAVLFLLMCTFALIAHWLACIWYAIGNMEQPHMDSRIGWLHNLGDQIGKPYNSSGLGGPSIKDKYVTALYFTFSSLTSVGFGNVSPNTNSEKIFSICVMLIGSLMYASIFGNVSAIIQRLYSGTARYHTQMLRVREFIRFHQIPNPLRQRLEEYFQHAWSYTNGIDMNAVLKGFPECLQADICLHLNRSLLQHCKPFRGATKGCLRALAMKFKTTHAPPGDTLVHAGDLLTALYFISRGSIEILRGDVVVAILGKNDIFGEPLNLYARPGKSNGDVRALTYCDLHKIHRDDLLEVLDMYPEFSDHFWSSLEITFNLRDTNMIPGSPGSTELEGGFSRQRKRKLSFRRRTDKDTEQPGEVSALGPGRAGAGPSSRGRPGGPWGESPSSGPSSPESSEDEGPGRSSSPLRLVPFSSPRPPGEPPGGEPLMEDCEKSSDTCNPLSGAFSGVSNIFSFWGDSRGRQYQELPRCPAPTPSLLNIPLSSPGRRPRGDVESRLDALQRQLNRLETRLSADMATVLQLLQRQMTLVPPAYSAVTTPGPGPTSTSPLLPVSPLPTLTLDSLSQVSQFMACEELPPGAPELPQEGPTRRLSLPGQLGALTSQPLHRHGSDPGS
Experiment: KCNH2 potassium channel function modulators, cell-based (AID 376);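 also: 0% = buffer alone and 100% = reference blocker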
Details: hERG-expressing cells, channel activity single-concentration screen; concentration not given here
About 250 (12%) of roughly 2,000 compounds were called active. Cut-off read from the data, not from the text of the source: active = hERG blockade below about -20% or above about 20%; inactive = in between. This excerpt belongs to a sample that is enriched for actives.
Form entry, call: pick from True (active), False (inactive)

Take a look at these entries with their results.
CC(=O)OC1CCC2(C)C(=CCC3C2CCC2(C)C3CC3OC4(CCC(C)CN4)C(C)C32)C1 (stereo not drawn)
False
Nc1ccc(S(=O)(=O)NCCS(=O)(=O)O)cc1
True

Let us examine a further case.
QUERY: Status in this test for S=C(Nc1ccc2cn[nH]c2c1)Nc1ccc2cn[nH]c2c1 ?
RESULT: False

* * *

Target: Voltage-gated inwardly rectifying potassium channel KCNH2 (Homo sapiens) (UniProt Q12809)
Assay: KCNH2 potassium channel function modulators, cell-based (AID 376);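 also: 0% = buffer alone and 100% = reference blocker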
Conditions: hERG-expressing cells, channel activity single-concentration screen; concentration not given here
In all, about 2,000 compounds went through this assay and about 250 (12%) were called active. Cut-off read from the data, not from the text of the source: active = hERG blockade below about -20% or above about 20%; inactive = in between. Only a selection was taken, and actives are over-represented in it overall.
Answer with one of the outcomes given here: active, inactive

Before answering, review these 5 worked examples.
O=C1c2ccccc2C(=O)c2c(Nc3cc4c5c(ccc6c7ccc8c9c(cc(Nc%10cccc%11c%10C(=O)c%10ccccc%10C%11=O)c(c3c56)c97)-c3ccccc3C8=O)C(=O)c3ccccc3-4)cccc21
active
O=C(O)CSc1nnc2c3ccccc3c3ccccc3c2n1
inactive
Cc1cc(N)c2cc(OCCOc3ccc4nc(C)cc(N)c4c3)ccc2n1
active
O=C(O)c1cncc(C(=O)O)c1
inactive
COc1nc(N)nc2c1ncn2C1CC(O)C(CO)O1 (centres undefined)
inactive

QUERY: Which outcome was entered for the compound CN(C)CCCc1c2ccccc2nc2ccc(Cl)cc12 in this test?
RESULT: active

QUERY: What was the test verdict on CCN(CC)CC[n+]1ccc2c(C)c3[nH]c4ccccc4c3c(C)c2c1 ?
RESULT: active

QUERY: Could you check what this test reported for CN1CCCC1c1cccnc1.O=C(O)c1ccccc1O.O=C([OH2+])c1ccccc1O.O=C([OH2+])c1ccccc1O.[Mn+2] (centres undefined) ?
RESULT: inactive

* * *

Target: Voltage-gated inwardly rectifying potassium channel KCNH2 (Homo sapiens)
Assay: KCNH2 potassium channel function modulators, cell-based (AID 376);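 also: 0% = buffer alone and 100% = reference blocker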
Conditions: hERG-expressing cells, channel activity single-concentration screen; concentration not given here
Hit rate of the full screen: of about 2,000 compounds, about 250 (12%) were called active. The full list was thinned out, with actives kept by preference.
measurement_name: hERG blockade (%)
Answers are plain numbers, in %.

# annotated cases, reported hERG blockade shown
C(=NNc1nnc2c(n1)[nH]c1ccccc12)c1cccnc1
9.9
Cc1cc(=O)[nH]c2cc3oc4ccccc4c3cc12
4.54
Cc1c(S(=O)(=O)O)ccc(N=Nc2c(O)c(C(=O)O)cc3ccccc23)c1Cl
2.42

For the 5 compounds below, give their hERG blockade values.
1. Clc1ccc(-c2nnc(-c3cccc4ccccc34)o2)cc1Cl
2. CC(CCC(=O)O)C(=O)O (stereo not drawn)
3. NS(=O)(=O)c1cc(C(=O)O)c(O)c2ccccc12
4. O=C(O)CCCCn1cnc2c(=S)nc[nH]c21
5. NS(=O)(=O)c1ccc(N=Nc2cc3ccccc3c(C(=O)O)c2O)cc1

RESULT:
1: -2.83; 2: 2.86; 3: 2.98; 4: 6.53; 5: 33.3

* * *

Target: Voltage-gated inwardly rectifying potassium channel KCNH2 (Homo sapiens) (UniProt Q12809)
Assay: KCNH2 potassium channel function modulators, cell-based (AID 376);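 also: 0% = buffer alone and 100% = reference blocker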
Conditions: hERG-expressing cells, channel activity single-concentration screen; concentration not given here
Screen size: about 2,000 compounds; about 250 (12%) were called active. What follows is part of a selection rich in actives, with near analogues and random picks from the rest.
measurement_name: hERG blockade (%)
Answers are plain numbers, in %.

Answered examples (3):
Oc1ccc(Cn2c(-c3ccc(O)cc3)nc3ccccc32)cc1
9.19
Cc1ccc(N=Nc2c(O)c3ccccc3[nH]c2=O)c(S(=O)(=O)N(C)C)c1
7.5
Cc1ccc(N=Nc2ccc(N)cc2C)c(S(N)(=O)=O)c1
23.9

// each listed compound needs a value for hERG blockade
1. Oc1ccc(Cl)cc1Cc1cc(Cl)cc(Cc2cc(Cl)ccc2O)c1O
2. COc1ccc(C(C)c2cc3c(cc2O)OCO3)cc1 (configuration not stated)
3. CN(C)CCCN=C(N)N
4. NC(=S)NN=Cc1c[nH]c2ccccc12
5. C[N+](C)(N)CCC[N+](C)(C)N
6. COc1ccc(C(Nc2ccccn2)c2cc(C(C)(C)C)cc(C(C)(C)C)c2O)cc1 (configuration not stated)
7. CN(Cc1cc(Cl)cc(Cl)c1O)Cc1c(O)ccc2ccccc12
8. Nc1c(S(=O)(=O)O)cc(S(=O)(=O)O)c2ccc(N=Nc3ccccc3)c(O)c12

RESULT:
1: 20.3; 2: 30; 3: -7.66; 4: 9.72; 5: -2.4; 6: 9.88; 7: 10.9; 8: 11.9

* * *

Molecular target: Voltage-gated inwardly rectifying potassium channel KCNH2 (Homo sapiens)
Assay: KCNH2 potassium channel function modulators, cell-based (AID 376);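 also: 0% = buffer alone and 100% = reference blocker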
Details: hERG-expressing cells, channel activity single-concentration screen; concentration not given here
The whole screen tested about 2,000 compounds, of which about 250 (12%) were called active. Cut-off read from the data, not from the text of the source: active = hERG blockade below about -20% or above about 20%; inactive = in between. The list comes from a sample in which actives are over-represented; it also holds close analogues and randomly drawn compounds.
Choose one outcome from this list and give only that: true (1) = active, false (0) = inactive

COc1cccc2c1C(=O)c1c(O)c3c(c(O)c1C2=O)CC(O)(C(=O)CO)CC3OC1CC(N)C(O)C(C)O1.[W] (stereo not given)
false (0)
NCC1OC(n2cnc3c(=O)[nH]c(N)nc32)C(O)C1O (stereo not given)
false (0)
FC(F)(F)c1cccc(-c2nc3nc(Cl)c(Cl)nc3[nH]2)c1
true (1)
Nc1ncnc2nn(C3OC(CO)C(O)C3O)nc12 (stereo not given)
false (0)
O=c1[nH]c(=S)[nH]c2c1CN(CCCN1CCOCC1)CN2
false (0)
CN1CCCCC1CCN1c2ccccc2Sc2ccc(S(C)=O)cc21 (stereo not given)
false (0)

QUERY: State the result this test recorded for O=C(O)C(C1NCCS1)N1Cc2ccccc2C1 (stereo not given) .
RESULT: false (0)

QUERY: What classification did COc1cccc2c1C(=O)c1c(O)c3c(c(O)c1C2=O)CC(O)(C(=O)CO)CC3OC1CC(N)C(O)C(C)O1 (stereo not given) end up with in this test?
RESULT: false (0)

QUERY: Could you kindly confirm the outcome this assay logged for COC(=O)C1C(O)CCC2CN3CCc4c([nH]c5ccccc45)C3CC21 (stereo not given) ?
RESULT: true (1)

QUERY: GET /call?item= CC(=O)NC(Cc1c[nH]c2ccccc12)C(=O)O (stereo not given) returns the recorded outcome of this test.
RESULT: false (0)

QUERY: What did this assay record as the result for COc1ccc(CSC2=C(C#N)C(=O)NC3(CCCCC3)S2)cc1 ?
RESULT: true (1)

QUERY: Identify the outcome logged in this assay for the compound shown: Nc1nc(N)c(N=Nc2ccc(C(=O)O)c(O)c2)c(N)n1
RESULT: false (0)

QUERY: Query: recorded result category for CC(N)(Cc1c[nH]c2ccccc12)C(=O)O (stereo not given) in this test
RESULT: true (1)

QUERY: Assay outcome for CC(Br)C(=O)c1ccc2cc(Br)c3ccccc3c2c1 (stereo not given) : what was it?
RESULT: false (0)

QUERY: Answer briefly: the call reported for COc1ccc2c(c1)N(CCC1CCCCN1C)c1ccccc1S2 (stereo not given) in this assay.
RESULT: true (1)
